System: K562
test details: NCI tumour cell line growth inhibition, 48 h
Calls of active or inactive are those of the source. No stated cut-off is given here; in the data, active = GI50 up to about 1.1 µM and inactive = higher.
Give your call using only these classes: 1 (yes) for active, 0 (no) for inactive

>>> class_name("CCN1C/C(=C\\c2ccc(Cl)cc2)c2[nH]c(=O)c(C#N)c(-c3ccc(Cl)cc3)c2C1")
"0 (no)"

In: Dear all, I need the recorded test outcome for `CCOc1ccc(NC2=CC(=O)C(=O)c3ccccc32)cc1` , thank you.
Out: 0 (no)

In: Dear all, I need the recorded test outcome for `[O-]c1on[n+]2c1c(Nc1ccc(Cl)cc1)nc1ccccc12` , thank you.
Out: 0 (no)

In: Dear all, I need the recorded test outcome for Cc1ccccc1NC(=O)/C(=N/NC(=O)CC#N)C1C(=O)N(c2ccccc2)N=C1N (stereo unspecified) , thank you.
Out: 0 (no)

In: Dear all, I need the recorded test outcome for COc1ccc2cc(C(C)C(=O)N3C(=O)OCC3(C)C)ccc2c1 (stereo unspecified) , thank you.
Out: 0 (no)

In: Dear all, I need the recorded test outcome for `COc1ccc2nc(-c3ccc(O)cc3)sc2c1` , thank you.
Out: 0 (no)

====

Test system: HT-29
test details: NCI tumour cell line growth inhibition, 48 h
Calls of active or inactive are those of the source. No stated cut-off is given here; in the data, active = GI50 up to about 1.1 µM and inactive = higher.
Give your call using only these classes: active, inactive

// below: answered compounds
>>> class_name("Clc1nc(Cl)c(CBr)c(Cl)n1")
"inactive"
>>> class_name("COc1ccc(C2=C(Cl)c3cc(OC)c(OC)cc3C2)cc1OC")
"inactive"
>>> class_name("N#Cc1c2c(c(Cl)n3c1nc1ccccc13)CCCC2")
"active"

In: Dear all, I need the recorded test outcome for C/C=C1/C(=Cc2[nH]c(C=c3[nH]/c(=C/C4=NC(=O)C(CC)=C4C)c(C)c3CCC(=O)O)c(CCC(=O)O)c2C)NC(=O)C1C (stereo not drawn) , thank you.
Out: inactive

====

Test system: HCC 2998
test details: NCI tumour cell line growth inhibition, 48 h
Active and inactive are the calls of the source. Rule as the data show it: active = GI50 up to about 1.1 µM and inactive = higher.
Give your call using only these classes: YES for active, NO for inactive

>>> class_name("CO[C@H]1O[C@@H]2CO[C@@H](c3ccccc3)O[C@H]2[C@@H]2C/C=C\\CCC[C@@]12O")
"NO"
>>> class_name("O=C1c2cccc3cccc(c23)C(=O)N1CCN(CCO)CCO")
"NO"
>>> class_name("Cc1ccc2c(c1)C1C(CO2)C(c2ccccc2)=NN1c1ccccc1 (configuration not stated)")
"NO"
>>> class_name("COc1cccc(-c2nc(O)c3ccccc3n2)c1")
"NO"
>>> class_name("Cc1ccc(NC(=O)/C=C/c2ccccc2)c(C)c1")
"NO"

In: Dear all, I need the recorded test outcome for `Br[Se]c1ccccn1` , thank you.
Out: NO

In: Dear all, I need the recorded test outcome for `O=[N+]([O-])C(C(Cl)=C(Cl)Cl)=C(n1nnc2ccccc21)n1nnc2ccccc21` , thank you.
Out: NO

In: Dear all, I need the recorded test outcome for `CSc1nc(-c2cc3c(c(SC)n2)CCCCC3)cc2c1CCCCC2` , thank you.
Out: NO

====

List of GI50 values.
Test system: A549
test details: NCI tumour cell line growth inhibition, 48 h
Calls of active or inactive are those of the source. No stated cut-off is given here; in the data, active = GI50 up to about 1.1 µM and inactive = higher.

Study these solved cases before continuing.
>>> endpoint_value("O=C1C=CC[C@H]2O[C@@H](COC(=O)Cc3ccccc3)C[C@H]2O1")
"27.1 µM (inactive)"
>>> endpoint_value("COc1cc([N+](=O)[O-])c(OC)c2c(Nc3ccc(S(=O)(=O)O)c4cc(S(=O)(=O)O)cc(S(=O)(=O)O)c34)cc(C)nc12")
"> 100 µM (inactive)"
>>> endpoint_value("O=CC1=C(C(=O)OC(c2ccccc2)c2ccccc2)N2C(=O)[C@@H](NC(=O)Cc3cccs3)[C@H]2SC1")
"> 100 µM (inactive)"
>>> endpoint_value("CCCCCCCCCCCCCCCCCC(=O)OCC1OC(OC)C(NC(=O)N(CCCl)N=O)C(O)C1O (stereo not drawn)")
"18.1 µM (inactive)"
>>> endpoint_value("CCOC(=O)COc1ccccc1/C=C1\\CCC(CN(C)C)C1=O (stereo not drawn)")
"21.5 µM (inactive)"

In: Item under review: O=C1c2[nH]c3ccccc3c2CCN2CCCCC12 (stereo not drawn) . Reported GI50?
Out: 24.9 µM (inactive)
